Origin of values: ChEMBL document CHEMBL4765358

Assay: Cytotoxicity against human HepG2 cells assessed as reduction in cell viability incubated for 120 hrs by MTS assay
Type: cell-based
Rule: measured CC50 at 120 h below 20 µM gets Satisfied; anything equal to or greater than 20 µM gets Not satisfied.

Ask: # TODO verify CC50 at 120 h < 20 µM strictly for this molecule: C=C(c1nc(-c2ccccc2)no1)C(O)c1ccccc1 (stereo unspecified)
Reply: Not satisfied

Ask: Strictly below 20 µM in CC50 at 120 h? C=CCOC1(C(=C)c2nc(-c3ccccc3)no2)C(=O)N(CC)c2c(Br)cccc21 (stereo unspecified)
Reply: Not satisfied

Ask: Consider the molecule C=C(c1nc(-c2ccccc2)no1)C1(O)C(=O)N(Cc2ccccc2)c2ccccc21 (stereo unspecified) . Is its CC50 at 120 h strictly less than 20 µM?
Reply: Satisfied

Ask: Please indicate whether the reported CC50 at 120 h of C=C(c1nc(-c2ccccc2)no1)C1(O)C(=O)N(CC)c2ccccc21 (stereo unspecified) is strictly below 20 µM.
Reply: Not satisfied

Ask: Identify whether the molecule C=C(c1nc(-c2ccccc2)no1)C(O)c1cccc(F)c1 (stereo unspecified) records CC50 at 120 h below 20 µM.
Reply: Satisfied

Ask: Hi there! Is CC50 at 120 h for C=C(c1nc(-c2ccc([N+](=O)[O-])cc2)no1)C1(O)C(=O)N(CC)c2ccc(OC)cc21 (stereo unspecified) below 20 µM, do you know?
Reply: Satisfied

Ask: Find out if reported CC50 at 120 h for C=C(c1nc(-c2ccccc2)no1)C1(O)C(=O)N(CC)c2ccc(OC(F)(F)F)cc21 (stereo unspecified) is less than 20 µM
Reply: Satisfied

Ask: Dear reviewer, please state whether C=C(c1nc(-c2ccccc2)no1)C1(O)C(=O)N(CC)c2ccc(F)cc21 (stereo unspecified) has CC50 at 120 h strictly beneath 20 µM.
Reply: Satisfied

Ask: Decide: CC50 at 120 h of C=C(c1nc(-c2ccccc2)no1)C1(O)C(=O)N(CC)c2ccc(C)cc21 (stereo unspecified) strictly below 20 µM?
Reply: Not satisfied

Ask: Is it true that CC50 at 120 h reported for C=C(c1nc(-c2ccccc2)no1)C(O)c1ccc(Cl)c(F)c1 (stereo unspecified) is less than 20 µM?
Reply: Not satisfied

Ask: Bench note: check whether C=C(c1nc(-c2ccccc2)no1)C1(O)C(=O)N(C)c2ccccc21 (stereo unspecified) shows CC50 at 120 h below 20 µM
Reply: Satisfied

Ask: Strictly below 20 µM in CC50 at 120 h? C=C(c1nc(-c2ccc(OC)cc2)no1)C(O)c1ccccc1C(F)(F)F (stereo unspecified)
Reply: Not satisfied

Ask: In the record for C=C(c1nc(-c2ccccc2)no1)C(O)c1ccccc1[N+](=O)[O-] (stereo unspecified) , is CC50 at 120 h less than 20 µM?
Reply: Satisfied

Ask: # check: CC50 at 120 h < 20 µM for C=C(c1nc(-c2ccccc2)no1)C(O)c1cccnc1 (stereo unspecified)
Reply: Satisfied

Ask: Strictly below 20 µM: is that where CC50 at 120 h of C=C(c1nc(-c2ccc([N+](=O)[O-])cc2)no1)C1(O)C(=O)N(CC)c2ccccc21 (stereo unspecified) sits?
Reply: Satisfied

Ask: Check if CC50 at 120 h falls below 20 µM for C=CCOC1(C(=C)c2nc(-c3ccccc3)no2)C(=O)N(CC)c2ccccc21 (stereo unspecified) .
Reply: Not satisfied

Ask: Lab note: confirm whether the reported CC50 at 120 h for this molecule is below 20 µM, equality not counting. molecule: C=C(c1nc(-c2ccc(Cl)cc2)no1)C1(O)C(=O)N(CC)c2ccc(OC)cc21 (stereo unspecified)
Reply: Satisfied

Ask: In plain terms, does C=C(c1nc(-c2ccccc2)no1)C(O)c1cc(F)cc(F)c1 (stereo unspecified) come in under 20 µM for CC50 at 120 h?
Reply: Satisfied

Ask: Problem: For the molecule C=C(c1nc(-c2ccccc2)no1)C(O)c1ccc([N+](=O)[O-])cc1 (stereo unspecified) , is CC50 at 120 h under 20 µM?
Reply: Satisfied

Ask: Consider C=C(c1nc(-c2ccccc2)no1)C1(O)C(=O)N(CC)c2c(Cl)cccc21 (stereo unspecified) . Does its CC50 at 120 h lie strictly below 20 µM?
Reply: Satisfied

* * *

Assay: Cytotoxicity against human HepG2 cells assessed as reduction in cell viability incubated for 120 hrs by MTS assay
Format: cell-based
Quantity name: CC50 at 120 h

Ask: Let me know recorded CC50 at 120 h for C=C(c1nc(-c2ccccc2)no1)C(O)/C=C/c1ccccc1 (stereo not given) , thanks.
Reply: 30.3 µM

Ask: Given C=C(c1nc(-c2ccccc2)no1)C1(O)C(=O)N(CC)c2ccc(Cl)cc21 (stereo not given) , respond with its CC50 at 120 h.
Reply: 6.78 µM

Ask: For the compound C=C(c1nc(-c2ccccc2)no1)C1(O)C(=O)N(CC)c2c(Cl)cc(Cl)cc21 (stereo not given) , give its measured CC50 at 120 h value.
Reply: 6.77 µM

Ask: Return CC50 at 120 h (reported value) for this compound: C=C(c1nc(-c2ccc([N+](=O)[O-])cc2)no1)C(O)c1ccccc1 (stereo not given)
Reply: 27.1 µM

Ask: Tell us which CC50 at 120 h value is on record for C=C(c1nc(-c2ccccc2)no1)C1(O)C(=O)N(c2ccccc2)c2ccccc21 (stereo not given)
Reply: 14.1 µM

Ask: // Input: "C=Cc1nc(-c2ccccc2)no1" . Output its CC50 at 120 h only.
Reply: > 64 µM

Ask: Return reported CC50 at 120 h. Input compound: C=C(c1nc(-c2ccccc2)no1)C(O)c1ccccc1Cl (stereo not given)
Reply: 59.2 µM

Ask: Consider the compound "COc1cccc2c1C(=O)c1c(O)c3c(c(O)c1C2=O)C[C@@](O)(C(=O)CO)C[C@@H]3O[C@H]1C[C@H](N)[C@H](O)[C@H](C)O1" . State its measured CC50 at 120 h.
Reply: 0.77 µM

Ask: Give the reported CC50 at 120 h for this compound. C=C(c1nc(-c2ccccc2)no1)C(O)c1ccc(C#N)cc1 (stereo not given)
Reply: 32 µM

Ask: Return the recorded CC50 at 120 h value; entry: C=C(c1nc(-c2ccccc2)no1)C1(O)C(=O)N(CC)c2ccc(OC)cc21 (stereo not given)
Reply: 13.5 µM

Ask: Fill in reported CC50 at 120 h for this entry: C=C(c1nc(-c2ccccc2)no1)C1(O)C(=O)N(CC)c2ccc(Br)cc21 (stereo not given)
Reply: 11.5 µM

Ask: Return CC50 at 120 h (reported value) for this compound: C=C(c1nc(-c2ccccc2)no1)C(O)c1ccc(S(C)(=O)=O)cc1 (stereo not given)
Reply: 28.7 µM

Ask: Output measured CC50 at 120 h for this item: C=C(c1nc(-c2ccc(OC)cc2)no1)C1(O)C(=O)N(CC)c2ccc(OC)cc21 (stereo not given)
Reply: 13.6 µM

Ask: Look up CC50 at 120 h of C=C(c1nc(-c2ccccc2)no1)C(O)c1ccc(OC)cc1 (stereo not given) and report it.
Reply: 33.6 µM

Ask: Report measured CC50 at 120 h; entry is C=C(c1nc(-c2ccc([N+](=O)[O-])cc2)no1)C(O)c1cc(OC)c(OC)c(OC)c1 (stereo not given)
Reply: 57.3 µM

* * *

Test: Cytotoxicity against human HepG2 cells assessed as reduction in cell viability incubated for 120 hrs by MTS assay
Assay type: cell-based
Quantity name: CC50 at 120 h (µM)
# output: bare number, implied unit µM

Ask: Identify the reported CC50 at 120 h for the following entry. C=C(c1nc(-c2ccccc2)no1)C(O)c1cc2c(cc1Br)OCO2 (stereo unspecified)
Reply: 58.5

Ask: Hello, please tell me recorded CC50 at 120 h for this one: C=C(c1nc(-c2ccccc2)no1)C1(O)C(=O)N(CC)c2c(Br)cccc21 (stereo unspecified)
Reply: 22.8

Ask: Give CC50 at 120 h for the following compound: C=C(c1nc(-c2ccc([N+](=O)[O-])cc2)no1)C1(O)C(=O)N(CC)c2ccc([N+](=O)[O-])cc21 (stereo unspecified)
Reply: 7.12

Ask: Supply measured CC50 at 120 h of C=C(c1nc(-c2ccc(OC)cc2)no1)C1(O)C(=O)N(CC)c2ccccc21 (stereo unspecified) in your reply.
Reply: 26.9

Ask: Assign CC50 at 120 h to the following record: C=C(c1nc(-c2ccc(OC)cc2)no1)C(O)c1ccc(C#N)cc1 (stereo unspecified)
Reply: 13.6

Ask: Please give measured CC50 at 120 h of the following entry: C=C(c1nc(-c2ccccc2)no1)C(O)c1ccc(Br)cc1 (stereo unspecified)
Reply: 41.1
